# Test system: HIV-1 strain RF
# assay.details: Anti-HIV-1 assay (p24 Ag ELISA)
# Assay type: cell-based
# experimental.conditions: Human immunodeficiency virus 1, MT4; MT-4 cells; read-out: IC50 against HIV-1 RF
readout.type: IC50 (nM)
Express the result in nM but write the number alone.

Query: Reported IC50, compound `C=C1CN(S(=O)(=O)c2ccc(C)cc2)CCCN(Cc2ccccc2)CCCN(S(=O)(=O)c2ccc(C)cc2)C1` : ____
Response: 900

====

# Test system: HIV-1 strain RF
# assay.details: Anti-HIV-1 assay (p24 Ag ELISA)
# Type: cell-based
# experimental.conditions: Human immunodeficiency virus 1, SUP-T1; SupT1 cells; read-out: IC50 against HIV-1 RF
readout.type: pIC50
Scale for pIC50: -log10 of concentration given in mol/L; no unit attached.

Query: Report pIC50 for C=C1CN(S(=O)(=O)c2ccc(C)cc2)CCCN(Cc2ccccc2)CCCN(S(=O)(=O)c2ccc(C)cc2)C1 [CADA] tested on HIV-1 strain RF.
Response: 5.74

Ref: patent US20040220164A1
